Measured values drawn from ChEMBL document CHEMBL4414609 for this set.

target: GNMT (glycine N-methyltransferase) (Homo sapiens)
Sequence (Q14749 whole entry): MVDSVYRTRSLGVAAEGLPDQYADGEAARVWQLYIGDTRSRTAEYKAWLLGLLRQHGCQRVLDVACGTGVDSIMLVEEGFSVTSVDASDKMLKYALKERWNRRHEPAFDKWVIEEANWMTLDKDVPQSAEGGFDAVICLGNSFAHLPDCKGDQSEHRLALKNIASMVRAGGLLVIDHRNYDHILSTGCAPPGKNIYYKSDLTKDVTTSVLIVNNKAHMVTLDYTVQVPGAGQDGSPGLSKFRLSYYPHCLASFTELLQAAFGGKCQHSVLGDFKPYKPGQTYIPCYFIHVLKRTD
experimentSummary: Inhibition of human GNMT expressed in Escherichia coli at 1 uM assessed as reduction in SAH level using glycine as substrate in presence of SAM incubated for 30 mins by LC-MS/MS analysis relative to control
measurementConditions: recombinant human GNMT expressed in Escherichia coli, probe glycine
experimentalEndpoint: inhibition at 0.5 h, 1 µM (%)
State the answer as a number, implicitly in %.

Per the reported GNMT (glycine N-methyltransferase) (Homo sapiens) data, NC(=O)c1cccc(C#C[C@@H](CC[C@H](N)C(=O)O)C[C@H]2O[C@@H](n3cnc4c(N)ncnc43)[C@H](O)[C@@H]2O)c1 has inhibition at 0.5 h, 1 µM of 4
